# assayComment: amyloid nucleation score (Sup35N fusion, yeast selection) (log enrichment); library NNK1; higher = more nucleation; inactive = no reads after selection;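 further: zero at mode of non-aggregating sequences after 7 days selection at 30°C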
Definition: the class of an entry is the range in low band (below -0.1), middle band (-0.1 to below 0.3), high band (0.3 or more) that contains its amyloid nucleation score.

Field: example entries. Status: answers known.
substance=SAVVAVPVPYRDHQCPLPRV assignedcategory="high band"
substance=MSVCAIYRVRVFQCCFTCLH assignedcategory="low band"
substance=GNCGET assignedcategory="high band"
substance=LRFRFSLANAEGLMLPVRHK assignedcategory="low band"
substance=RFEMNCWSC assignedcategory="low band"

Class? Entry: MHISCNTDSSYTFGRNALK
high band

Class? Entry: YWLGLNMCVFSHPGCGLREI
high band

Class? Entry: QFKKVGPPLVKNLAQVRMRM
middle band

Class? Entry: IIITFLCNYFQGWNCLLVHF
high band

Class? Entry: MRNKKRPSRLVIGRLGNGFS
middle band

Class? Entry: GLLTMIPKDYNCRISYLVHT
middle band

Class? Entry: SLCHAFYSVNNLAFCHSFTP
high band

Class? Entry: LFADYILCTCAGCGTGAWEM
middle band

Class? Entry: TVLWWSSGDSGSCWYYCKIE
low band

Class? Entry: SGILNAKLNSIGIEKSYAGF
low band

Class? Entry: ETNLFVLNVNNVLVVFWCPP
high band

---

# assayComment: amyloid nucleation score (Sup35N fusion, yeast selection) (log enrichment); library NNK1; higher = more nucleation; inactive = no reads after selection
observationType: amyloid nucleation score
I only need the number, thanks.

substance=SWKPVLSREDFWTNHKGRPM observedvalue=0.565
substance=FTFNYIATVSQLPGFGVIHS observedvalue=0.343
substance=MLHHLSYVAVRWCKRTRKLC observedvalue=0.405

Note to self: amyloid nucleation score recorded for DHFKKILGLCKSGCRVVERE was 0.759

Note to self: amyloid nucleation score recorded for TTKAVRCYRNIMCSTILGRS was -0.015

Note to self: amyloid nucleation score recorded for ARITMYLCFNRLLVGKVCSG was -0.176

Note to self: amyloid nucleation score recorded for CVSCVSGILFEMCPSSFPNQ was -0.578

Note to self: amyloid nucleation score recorded for NYSDLKRGHRLDSADGWDGI was -0.613

Note to self: amyloid nucleation score recorded for RHISAAEPQSVESMIAKGN was -0.054

---

# assayComment: amyloid nucleation score (Sup35N fusion, yeast selection) (log enrichment); library NNK3; higher = more nucleation; inactive = no reads after selection
observationType: amyloid nucleation score

Below are worked cases with known answers.
substance=GATNDH observedvalue=inactive
substance=RLLPFIGIYNFSKKWLSKAL observedvalue=-0.313
substance=YDKVFLPLGWHWPERPMGQT observedvalue=inactive
substance=YMCSLLMIAKSMPGRG observedvalue=1.42

Note to self: amyloid nucleation score recorded for RPAGLWVTMWIYPVLRSTYV was inactive

Note to self: amyloid nucleation score recorded for SSIGCPYLSYDYCFPTMWIW was inactive

Note to self: amyloid nucleation score recorded for GLYPQWLGDGRWLSSGLATL was 0.138

Note to self: amyloid nucleation score recorded for TDKAICISLFRVIRLYAYAK was inactive

Note to self: amyloid nucleation score recorded for PRTQSYECVYGYSLKRNWLA was inactive

---

# assayComment: amyloid nucleation score (Sup35N fusion, yeast selection) (log enrichment); library NNK3; higher = more nucleation; inactive = no reads after selection
observationType: amyloid nucleation score

Below are worked cases with known answers.
constructsequence=SFMACRLCGRAVDDIVEYTV observedvalue=inactive
constructsequence=IVGAAVRGKMRFSMSRAWLG observedvalue=inactive
constructsequence=NFPYYSEYFFLCIRDSTSKS observedvalue=inactive
constructsequence=RPSFLVGRFMTVLKSPRHDV observedvalue=-0.692
constructsequence=PTITMANKDRFLRRCSPNGG observedvalue=inactive
constructsequence=KWFRHFHI observedvalue=inactive
constructsequence=VWFINFVCLFKGSLLCISES observedvalue=inactive
constructsequence=IELLCGLDIT observedvalue=inactive

Note to self: amyloid nucleation score recorded for FIKYFANLRKFCDILSCSL was 1.27

Note to self: amyloid nucleation score recorded for LYVLWRLGKQCHTFWFFSSI was 0.265

Note to self: amyloid nucleation score recorded for SKKPVEMTRNI was inactive
